tested on: BT-474 human mammary gland ductal carcinoma cells; experiment: Inhibitory response of test compounds against BT-474 cells (Cell Titer-Glo, 72 h); type: cell-based; conditions: Homo sapiens
Numbered stars: 1 amine (or outer) side, 2 acyl side, 3 side chain; on linkers, the order of the positions; unused ones are H or OH. Bridge positions count the residues as written; N and C are the ends. Square brackets hold non-standard residues; d marks the D form. Peptide text beside a SMILES is read from it. ξ: configuration not given here. X3 = C/C=C(\C)[C@@H](O[*:2])[C@@H](C)[C@@H](O)C/C=C(\C)C(=O)[*:1]; X10 = C/C(=C\CCCCO[*:2])C(=O)[*:1]; X9 = C/C(=C\CCCO[*:2])C(=O)[*:1]; dNMeF = CN[C@H](Cc1ccccc1)C(=O)O; Ile(3ξ) = CCC(C)[C@H](N)C(=O)O; dHica = CC(C)C[C@@H](O)C(=O)O; dAbu = CC[C@@H](N)C(=O)O; Sar = CNCC(=O)O
parameter: IC50

Observe how each entry below is paired with its result.
INSERT INTO results (molecule, parameter, value_observed) VALUES
  ('C/C=C(\C)[C@H]1OC(=O)[C@@H](C)NC(=O)[C@H]([C@H](C)CC)NC(=O)CN(C)C(=O)[C@@H](Cc2ccccc2)N(C)C(=O)[C@H](C)NC(=O)[C@@H](CC(C)C)OC(=O)/C(C)=C/C[C@H](OC(=O)NCCCCCCNC(=O)OC(C)(C)C)[C@@H]1C', 'IC50', '< 0.02 µM'),
  ('C/C=C(\C)[C@H]1OC(=O)[C@@H](C)NC(=O)[C@H](C(C)CC)NC(=O)CN(C)C(=O)[C@@H](Cc2ccccc2)N(C)C(=O)[C@H](C)NC(=O)[C@@H](CC(C)C)OC(=O)/C(C)=C/C[C@H](O)[C@@H]1C (stereo partly shown) [Kulo-2, kulo-2, reference compound]', 'IC50', '< 0.02 µM'),
  ('CCC(C)[C@@H]1NC(=O)CN(C)C(=O)[C@@H](Cc2ccccc2)N(C)C(=O)[C@H](C)NC(=O)[C@@H](CC(C)C)OC(=O)/C(C)=C/CCCCOC(=O)[C@@H](C)NC1=O (stereo partly shown) [Compound 13] ([dHica]A[dNMeF][Sar][Ile(3ξ)][dA]; linker N-C via X10)', 'IC50', '> 10 µM');

Q: If you can, please state the reported IC50 value of CCC(C)[C@@H]1NC(=O)CN(C)C(=O)[C@@H](Cc2ccccc2)N(C)C(=O)[C@H](C)NC(=O)[C@@H](CC(C)C)OC(=O)/C(C)=C/CCCOC(=O)[C@@H](C)NC1=O (stereo partly shown) [Compound 5] ([dHica]A[dNMeF][Sar][Ile(3ξ)][dA]; linker N-C via X9) .
Result: > 10 µM

Q: Item C/C=C(\C)[C@H]1OC(=O)[C@@H](C)NC(=O)[C@H](C(C)CC)NC(=O)CN(C)C(=O)[C@@H](Cc2ccccc2)N(C)C(=O)[C@H](C)NC(=O)[C@@H](CC(C)C)NC(=O)/C(C)=C/C[C@H](O)[C@@H]1C (stereo partly drawn) [Compound 63] ([dL]A[dNMeF][Sar][Ile(3ξ)][dA]; linker N-C via X3) has what recorded IC50?
Result: < 0.02 µM

Q: Sample C/C=C(\C)[C@H]1OC(=O)[C@@H](CCCCN)NC(=O)[C@H](C(C)CC)NC(=O)CN(C)C(=O)[C@@H](Cc2ccccc2)N(C)C(=O)[C@H](C)NC(=O)[C@@H](CC(C)C)OC(=O)/C(C)=C/C[C@H](O)[C@@H]1C (stereo partly shown) — what was its IC50?
Result: 0.2 to 10 µM

Q: So what's the measured IC50 for this one? CCC(C)[C@@H]1NC(=O)CN(C)C(=O)[C@@H](Cc2ccccc2)N(C)C(=O)[C@H](C)NC(=O)[C@@H](CC(C)C)OC(=O)/C(C)=C/CCCCOC(=O)[C@@H](CC)NC1=O (stereo partly shown) [Compound 77] ([dHica]A[dNMeF][Sar][Ile(3ξ)][dAbu]; linker N-C via X10)
Result: > 10 µM
